Experiment: Toxicity against human HepG2 cells incubated for 48 hrs by MTT assay
Assay type: cell-based
Details: read-out: TC50
Observed property: CC50 at 48 h

// below: answered molecules
INSERT INTO results (query_smiles, observed_measurement) VALUES
  ('CN1CCN(S(=O)(=O)c2ccc(-c3ccc4c(Nc5ccc(OCc6cccc(F)c6)c(Cl)c5)nncc4c3)cc2)CC1', '> 15 µM'),
  ('O=S(=O)(c1ccc(-c2ccc3cnnc(Nc4ccc(OCc5ccccc5)c(Cl)c4)c3c2)cc1)N1CCOCC1', '> 5.2 µM'),
  ('CN1CCCN(S(=O)(=O)c2ccc(-c3ccc4c(Nc5ccc(OCc6cccc(F)c6)c(Cl)c5)cnnc4c3)cc2)CC1', '15 µM'),
  ('O=S(=O)(c1ccc(-c2ccc3c(Nc4ccc(OCc5ccccc5)c(Cl)c4)nncc3c2)cc1)N1CCOCC1', '> 15 µM'),
  ('Fc1cccc(COc2ccc(Nc3nncc4cc(-c5cccc(N6CCOCC6)c5)ccc34)cc2Cl)c1', '> 15 µM'),
  ('N#Cc1cnc2ccc(-c3ccc(S(=O)(=O)N4CCOCC4)cc3)cc2c1Nc1ccc(OCc2ccccc2)c(Cl)c1', '> 15 µM'),
  ('O=S(=O)(c1ccc(-c2ccc3c(Nc4ccc(OCc5ccccc5)c(Cl)c4)cnnc3c2)cc1)N1CCOCC1', '> 11 µM'),
  ('Fc1cccc(COc2ccc(Nc3ncnc4cc(-c5cccc(N6CCOCC6)c5)sc34)cc2Cl)c1', '> 15 µM'),
  ('CN1CCCN(S(=O)(=O)c2ccc(-c3cc4c(Nc5ccc(OCc6cccc(F)c6)c(Cl)c5)ncnc4s3)cc2)CC1', '> 15 µM'),
  ('CN1CCCN(S(=O)(=O)c2ccc(-c3ccc4nccc(Nc5ccc(OCc6cccc(F)c6)c(Cl)c5)c4c3)cc2)CC1', '4.3 µM');

Per the record, "O=S(=O)(c1ccc(-c2ccc3c(Nc4ccc(OCc5ccccc5)c(Cl)c4)nccc3c2)cc1)N1CCOCC1" has CC50 at 48 h of > 5 µM

Reported CC50 at 48 h of "CN1CCCN(S(=O)(=O)c2ccc(-c3ccc4nncc(Nc5ccc(OCc6cccc(F)c6)c(Cl)c5)c4c3)cc2)CC1" : 7.3 µM

Item: "Fc1cccc(COc2ccc(Nc3nncc4ccc(-c5cccc(N6CCOCC6)c5)cc34)cc2Cl)c1" | CC50 at 48 h: > 15 µM

Sample "O=S(=O)(c1ccc(-c2ccc3nccc(Nc4ccc(OCc5ccccc5)c(Cl)c4)c3c2)cc1)N1CCOCC1" ; CC50 at 48 h observed: > 5 µM

Notebook: "CN1CCCN(S(=O)(=O)c2ccc(-c3ccc4ncc(C#N)c(Nc5ccc(OCc6ccccc6)c(Cl)c5)c4c3)cc2)CC1" , CC50 at 48 h read as 13 µM

Note to self: CC50 at 48 h recorded for "CN1CCCN(S(=O)(=O)c2ccc(-c3ccc4cnnc(Nc5ccc(OCc6cccc(F)c6)c(Cl)c5)c4c3)cc2)CC1" was 14 µM

---

Each entry below carries its reported CC50 at 48 h.
Assay: Toxicity against human HepG2 cells incubated for 48 hrs by MTT assay
Assay type: cell-based
Conditions: read-out: TC50

For orientation, consider the following solved cases.
INSERT INTO assay_data (query_smiles, observed_measurement) VALUES
  ('CN1CCN(S(=O)(=O)c2ccc(-c3ccc4c(Nc5ccc(OCc6cccc(F)c6)c(Cl)c5)ccnc4c3)cc2)CC1', '> 4 µM'),
  ('CN1CCN(S(=O)(=O)c2ccc(-c3cc4c(Nc5ccc(OCc6cccc(F)c6)c(Cl)c5)ncnc4s3)cc2)CC1', '> 15 µM'),
  ('O=S(=O)(c1ccc(-c2cc3c(Nc4ccc(OCc5ccccc5)c(Cl)c4)ncnc3s2)cc1)N1CCOCC1', '> 15 µM');

The value of CC50 at 48 h measured for the compound "Fc1cccc(COc2ccc(Nc3cnnc4ccc(-c5cccc(N6CCOCC6)c5)cc34)cc2Cl)c1" turned out to be > 15 µM

get_value(item= "N#Cc1cnc2ccc(-c3ccc(S(=O)(=O)N4CCOCC4)cc3)cc2c1Nc1ccc(OCc2cccc(F)c2)c(Cl)c1" , readout=CC50 at 48 h) returns > 15 µM

Sample "CN1CCN(S(=O)(=O)c2ccc(-c3cc4ncnc(Nc5ccc(OCc6cccc(F)c6)c(Cl)c5)c4s3)cc2)CC1" ; CC50 at 48 h observed: > 15 µM

Data point: "O=S(=O)(c1ccc(-c2ccc3ncnc(Nc4ccc(OCc5ccccc5)c(Cl)c4)c3c2)cc1)N1CCOCC1" ; CC50 at 48 h = > 15 µM

Form: compound = "CN1CCN(S(=O)(=O)c2ccc(-c3ccc4cnnc(Nc5ccc(OCc6cccc(F)c6)c(Cl)c5)c4c3)cc2)CC1" ; CC50 at 48 h = > 5 µM

---

Tested on: Plasmodium falciparum
Assay: Antiparasite activity against Plasmodium falciparum D6 assessed as growth inhibition incubated for 72 hrs by SYBR green fluorescence assay
Format: functional, organism-based
Settings: D6, 72 h
# log10 EC50 listing for each entry below
Hi team, quick reminder: these entries are log10 of EC50 (nM).

INSERT INTO assay_data (query_smiles, measured_on, observed_measurement) VALUES
  ('N#Cc1cnc2ccc(-c3ccc(S(=O)(=O)N4CCOCC4)cc3)cc2c1Nc1ccc(OCc2cccc(F)c2)c(Cl)c1', 'Plasmodium falciparum', 2.20);

Entry "CN1CCCN(S(=O)(=O)c2ccc(-c3ccc4ncc(C#N)c(Nc5ccc(OCc6ccccc6)c(Cl)c5)c4c3)cc2)CC1" , log10 EC50 reported as 1.76

Noted for "CN1CCCN(S(=O)(=O)c2ccc(-c3ccc4nncc(Nc5ccc(OCc6cccc(F)c6)c(Cl)c5)c4c3)cc2)CC1" : its log10 EC50 reads 1.43

Looking up "O=S(=O)(c1ccc(-c2ccc3nncc(Nc4ccc(OCc5ccccc5)c(Cl)c4)c3c2)cc1)N1CCOCC1" , I found its log10 EC50 recorded as 2.91

Looking up "Fc1cccc(COc2ccc(Nc3ccnc4ccc(-c5cccc(N6CCOCC6)c5)cc34)cc2Cl)c1" , I found its log10 EC50 recorded as 1.54

Short answer for "O=S(=O)(c1ccc(-c2ccc3ncnc(Nc4ccc(OCc5ccccc5)c(Cl)c4)c3c2)cc1)N1CCOCC1" : log10 EC50 was 2.41

The compound listed as "O=S(=O)(c1ccc(-c2ccc3c(Nc4ccc(OCc5ccccc5)c(Cl)c4)nncc3c2)cc1)N1CCOCC1" has a reported log10 EC50 of 2.04

So, "CN1CCCN(S(=O)(=O)c2ccc(-c3ccc4c(Nc5ccc(OCc6cccc(F)c6)c(Cl)c5)nccc4c3)cc2)CC1" ? Its log10 EC50 was 2.61

---

Experiment: Toxicity against human HepG2 cells incubated for 48 hrs by MTT assay
Assay type: cell-based
Details: read-out: TC50
Observed property: CC50 at 48 h

# annotated cases, reported CC50 at 48 h shown
INSERT INTO assay_data (query_smiles, observed_measurement) VALUES
  ('N#Cc1cnc2ccc(-c3cccc(N4CCOCC4)c3)cc2c1Nc1ccc(OCc2ccccc2)c(Cl)c1', '> 15 µM'),
  ('CN1CCN(S(=O)(=O)c2ccc(-c3ccc4c(Nc5ccc(OCc6cccc(F)c6)c(Cl)c5)cnnc4c3)cc2)CC1', '> 15 µM'),
  ('CN1CCN(S(=O)(=O)c2ccc(-c3ccc4c(Nc5ccc(OCc6cccc(F)c6)c(Cl)c5)nccc4c3)cc2)CC1', '> 15 µM'),
  ('Fc1cccc(COc2ccc(Nc3nccc4cc(-c5cccc(N6CCOCC6)c5)ccc34)cc2Cl)c1', '> 28 µM'),
  ('O=S(=O)(c1ccc(-c2ccc3c(Nc4ccc(OCc5ccccc5)c(Cl)c4)ccnc3c2)cc1)N1CCOCC1', '> 3 µM');

Entry "CN1CCCN(S(=O)(=O)c2ccc(-c3cc4ncnc(Nc5ccc(OCc6cccc(F)c6)c(Cl)c5)c4s3)cc2)CC1" , CC50 at 48 h reported as > 15 µM

CC50 at 48 h for "N#Cc1cnc2ccc(-c3cccc(N4CCOCC4)c3)cc2c1Nc1ccc(OCc2cccc(F)c2)c(Cl)c1" is > 15 µM

---

In this section, each of the molecules is paired with its reported pEC50.
Tested on: Plasmodium falciparum
Assay: Antiparasite activity against Plasmodium falciparum D6 assessed as growth inhibition incubated for 72 hrs by SYBR green fluorescence assay
Format: functional, organism-based
Conditions: D6, 72 h
Interpret pEC50 as the negative base-10 log of the concentration measured in mol/L.

INSERT INTO results (query_smiles, observed_measurement) VALUES
  ('CN1CCCN(S(=O)(=O)c2ccc(-c3ccc4c(Nc5ccc(OCc6cccc(F)c6)c(Cl)c5)nncc4c3)cc2)CC1', 7.54),
  ('Fc1cccc(COc2ccc(Nc3nncc4cc(-c5cccc(N6CCOCC6)c5)ccc34)cc2Cl)c1', 6.62),
  ('CN1CCN(S(=O)(=O)c2ccc(-c3ccc4c(Nc5ccc(OCc6cccc(F)c6)c(Cl)c5)ccnc4c3)cc2)CC1', 7.72),
  ('CN1CCN(S(=O)(=O)c2ccc(-c3ccc4c(Nc5ccc(OCc6cccc(F)c6)c(Cl)c5)nncc4c3)cc2)CC1', 7.35),
  ('Fc1cccc(COc2ccc(Nc3ncnc4ccc(-c5cccc(N6CCOCC6)c5)cc34)cc2Cl)c1', 6.64),
  ('N#Cc1cnc2ccc(-c3cccc(N4CCOCC4)c3)cc2c1Nc1ccc(OCc2cccc(F)c2)c(Cl)c1', 6.32);

Entry under test: "Fc1cccc(COc2ccc(Nc3nncc4ccc(-c5cccc(N6CCOCC6)c5)cc34)cc2Cl)c1" . Its pEC50 was 6.96

pEC50 reading for "Fc1cccc(COc2ccc(Nc3nccc4ccc(-c5cccc(N6CCOCC6)c5)cc34)cc2Cl)c1" : 5.59

All values here come from ChEMBL document CHEMBL3588845.
